target: hGPR40 (Homo sapiens); assay: GPR40 Inositol Phosphate Turnover (IP1) Assay; format: cell-based; set-up: expressed in transfected cells; host or cells: HEK cells stably expressing the aequorin reporter; settings: HEK cells stably expressing human GPR40; 0% serum; read-out: hGPR40 IP1 EC50 (0% serum)
Recorded Metric: EC50

For orientation, consider the following solved cases.
Compound	Tgt	EC50
Cc1nc(OCCC(C)(C)O)ccc1-c1cccc(COc2cc3c(cn2)[C@H]2[C@@H](C3)[C@@H]2C(=O)O)c1	hGPR40 (Homo sapiens)	28 nM
Cc1cc(OCC(O)CO)cc(C)c1-c1ccc(F)c(COc2cc3c(cn2)[C@H]2[C@@H](C3)[C@@H]2C(=O)O)c1 (stereo partly shown)	hGPR40 (Homo sapiens)	6.2 nM
Cc1nc(OCCCS(C)(=O)=O)ccc1-c1ccc(F)c(CNc2cc3c(cn2)C2C(C3)C2C(=O)O)c1 (stereo not shown)	hGPR40 (Homo sapiens)	90 nM
Cc1nc(N2CCOCC2)nc(C)c1-c1ccc(F)c(COc2cc3c(cn2)C2C(C3)C2C(=O)O)c1 (stereo not shown)	hGPR40 (Homo sapiens)	45 nM
Cc1cc(OC[C@H](C)O)cc(C)c1-c1ccc(F)c(COc2cc3c(cn2)[C@H]2[C@@H](C3)[C@@H]2C(=O)O)c1	hGPR40 (Homo sapiens)	8.4 nM
Cc1cc(OCC2(F)CCOCC2)cc(C)c1-c1ccc(F)c(COc2cc3c(cn2)[C@H]2[C@@H](C3)[C@@H]2C(=O)O)c1	hGPR40 (Homo sapiens)	9.9 nM

Consider the additional compound presented here.
Need EC50, item Cc1cc(OCC2(C)COC2)cc(C)c1-c1cccc(COc2cc3c(cn2)[C@H]2[C@@H](C3)[C@@H]2C(=O)O)c1
18 nM

* * *

// reported pEC50 per item
molecular target: hGPR40 (Homo sapiens); experiment: GPR40 Inositol Phosphate Turnover (IP1) Assay; format: cell-based; set-up: expressed in transfected cells; host or cells: HEK cells stably expressing the aequorin reporter; details: HEK cells stably expressing human GPR40; 0% serum; read-out: hGPR40 IP1 EC50 (0% serum)
Please treat pEC50 as minus the base-10 logarithm of the molar concentration.

Some entries whose results are on file:
Molecule	pEC50
Cc1nc(OCCCC(C)(C)O)ccc1-c1ccc(F)c(COc2cc3c(cn2)[C@H]2[C@@H](C3)[C@@H]2C(=O)O)c1	8.19
O=C(O)C1C2Cc3cc(OCc4cc(-c5ccccc5C(F)(F)F)ccc4F)ncc3C21 (stereo not shown)	7.46

Attention now shifts to the item below.
Query (molecule): Cc1cc(O[C@H]2C[C@@](C)(C#N)C2)cc(C)c1-c1cccc(COc2cc3c(cn2)C2[C@@H](C3)[C@@H]2C(=O)O)c1 (stereo partly shown) ; field requested: pEC50
7.68

* * *

target: hGPR40 (Homo sapiens); test: GPR40 FLIPR assay (agonist-induced calcium mobilization); assay type: cell-based; set-up: expressed in transfected cells; host or cells: CHO cells stably expressing NFAT BLA (beta-lactamase); conditions: GPR40/CHO NFAT BLA cells
Known pEC50 of a selection of compounds
// pEC50: -log10(molar conc.)

The following compounds have reported results that may help.
Compound	Recorded Metric	Value Reported
Cc1nc(OC2CCS(=O)(=O)CC2)ccc1-c1ccc(F)c(COc2cc3c(cn2)C2C(C3)C2C(=O)O)c1 (stereo not shown)	pEC50	7.01
CS(=O)(=O)CCCOc1ccc(-c2ccc(F)c(COc3cc4c(cn3)[C@H]3[C@@H](C4)[C@@H]3C(=O)O)n2)c(C(F)(F)F)c1	pEC50	7.15
Cc1cc(OCCCC2(C#N)CC2)cc(C)c1-c1cccc(COc2cc3c(cn2)C2[C@@H](C3)[C@@H]2C(=O)O)c1 (stereo in doubt)	pEC50	7.40
O=C(O)[C@H]1[C@@H]2Cc3cc(OCc4cc(-c5ccc(OCCC6(O)CC6)cc5C(F)(F)F)ccc4F)ncc3[C@@H]21	pEC50	7.59
O=C(O)[C@H]1[C@@H]2Cc3cc(OCc4cc(Oc5ccc(C(F)(F)F)cc5Cl)ccc4F)ncc3[C@@H]21	pEC50	7.31
Cc1cc(OCC(O)CO)cc(C)c1-c1ccc(F)c(COc2cc3c(cn2)[C@H]2[C@@H](C3)[C@@H]2C(=O)O)c1 (stereo partly shown)	pEC50	7.49

Query: pEC50; subject: Cc1nc(OCCOCC(C)(C)O)ccc1-c1ccc(F)c(COc2cc3c(cn2)[C@H]2[C@@H](C3)[C@@H]2C(=O)O)c1
7.46

I would be grateful if you could share the reported pEC50 for Cc1nc(N2CCOCC2)nc(C)c1-c1ccc(F)c(COc2cc3c(cn2)C2C(C3)C2C(=O)O)c1 (stereo not shown) .
7.07

# input compound: CS(=O)(=O)CCCOc1cc(F)c(-c2ccc(F)c(COc3cc4c(cn3)[C@H]3[C@@H](C4)[C@@H]3C(=O)O)c2)c(C(F)(F)F)c1 ; wanted: its pEC50
7.74

Find the recorded pEC50 belonging to O=C(O)C1C2Cc3cc(OCc4cc(-c5ccc(C(F)(F)F)cc5)ccc4F)ncc3C21 (stereo not shown) and report it.
7.27

Entry Cc1nc(OCCC(C)(C)O)ccc1-c1cccc(COc2cc3c(cn2)[C@H]2[C@@H](C3)[C@@H]2C(=O)O)c1 : reported pEC50 = ?
7.38

Can you share its pEC50? I mean this compound: O=C(O)C1C2Cc3cc(OCc4cc(-c5c(F)cccc5C(F)(F)F)ccc4F)ncc3C21 (stereo not shown)
7.06

Fill in the blank: the reported pEC50 of Cc1c(COc2cc3c(cn2)[C@H]2[C@@H](C3)[C@@H]2C(=O)O)cccc1-n1c(C(F)(F)F)nc2ccc(F)c(F)c21 is ____.
7.47

* * *

target: hGPR40 (Homo sapiens, UniProt O14842); experiment: GPR40 FLIPR assay (agonist-induced calcium mobilization); assay type: cell-based; parameters: expressed in transfected cells; host or cells: CHO cells stably expressing NFAT BLA (beta-lactamase); conditions: GPR40/CHO NFAT BLA cells;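 also: calcium mobilization in the cells read as fluorescence of fluo-4 AM loaded cells on FLIPR after compound addition, cells preloaded with dye 100 min at room temperature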
Sequence (O14842 whole entry): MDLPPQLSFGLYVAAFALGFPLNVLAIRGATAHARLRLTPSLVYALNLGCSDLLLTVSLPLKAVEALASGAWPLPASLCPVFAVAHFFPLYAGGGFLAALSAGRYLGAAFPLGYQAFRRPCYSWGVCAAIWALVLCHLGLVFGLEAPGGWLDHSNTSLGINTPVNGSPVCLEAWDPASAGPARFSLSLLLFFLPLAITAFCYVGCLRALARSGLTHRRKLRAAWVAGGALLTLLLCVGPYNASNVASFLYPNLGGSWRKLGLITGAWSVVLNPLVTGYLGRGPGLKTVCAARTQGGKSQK
Group membership follows EC50 per the scheme low: < 30 nM; mid: ≥ 30 nM and < 50 nM; high: ≥ 50 nM

// known answers, use as guide
Compound	Class Name
CC(C)(O)COc1cc(C(F)(F)F)c(-c2ccc(F)c(COc3cc4c(cn3)[C@H]3[C@@H](C4)[C@@H]3C(=O)O)c2)cn1	high
Cc1cc(OCC2(C)COC2)cc(C)c1-c1ccc(F)c(COc2cc3c(cn2)[C@H]2[C@@H](C3)[C@@H]2C(=O)O)c1	low
Cc1nc(OCCC(C)(C)O)ccc1-c1ccc(F)c(COc2cc3c(cn2)C2C(C3)C2C(=O)O)c1 (centres unmarked)	high
Cc1cc(OCCCS(C)(=O)=O)cc(C)c1-c1ccc(F)c(C(C)Oc2cc3c(cn2)[C@H]2[C@@H](C3)[C@@H]2C(=O)O)c1 (some centres unmarked)	mid
Cc1cc(OCCC(C)O)cc(C)c1-c1ccc(F)c(COc2cc3c(cn2)[C@H]2[C@@H](C3)[C@@H]2C(=O)O)c1 (some centres unmarked)	low
CO/N=C(\C)CCCOc1cc(C)c(-c2cccc(COc3cc4c(cn3)[C@H]3[C@@H](C4)[C@@H]3C(=O)O)c2)c(C)c1	low

Lab log: Cc1nc(OCCCN2CCCC2=O)ccc1-c1ccc(F)c(COc2cc3c(cn2)C2C(C3)C2C(=O)O)c1 (centres unmarked) — assign EC50 category
mid

Sort CO/N=C(\C)CCCOc1ccc(-c2cccc(COc3cc4c(cn3)[C@H]3[C@@H](C4)[C@@H]3C(=O)O)c2)c(C)c1 into one of the categories.
low

Input Cc1nc(OCCCS(C)(=O)=O)nc(C)c1-c1ccc(F)c(COc2cc3c(cn2)C2C(C3)C2C(=O)O)c1 (centres unmarked) ; output its category
high

Place this compound in its band: CS(=O)(=O)CCCOc1cc(OC(F)F)c(-c2ccc(F)c(COc3cc4c(cn3)[C@H]3[C@@H](C4)[C@@H]3C(=O)O)c2)cn1
high

Hey, which category is CC(C)(O)CCOc1cc(C(F)(F)F)c(-c2ccc(F)c(COc3cc4c(cn3)C3C(C4)C3C(=O)O)c2)cn1 (centres unmarked) in, do you know?
high

Band of Cc1nc(OCCCS(C)(=O)=O)ccc1-c1cc(COc2cc3c(cn2)[C@H]2[C@@H](C3)[C@@H]2C(=O)O)cc(C(F)(F)F)c1 ?
low

Hi, small favor: classify Cc1cc(OCCCS(C)(=O)=O)cc(C)c1-c1ccc(F)c(COc2cc3c(cn2)[C@H]2[C@@H](C3)[C@@H]2C(=O)O)c1 by its EC50 when you get a moment.
low

Using the reported EC50, which band applies to CC(C)(O)CCOc1cc(C(F)(F)F)c(-c2cccc(COc3cc4c(cn3)[C@H]3[C@@H](C4)[C@@H]3C(=O)O)c2)cn1 ?
low

Which bin, given its EC50, does Cc1nc(OCCCS(C)(=O)=O)ccc1-c1ccc(F)c(COc2cc3c(cn2)[C@H]2[C@@H](C3)[C@@H]2C(=O)O)c1 occupy?
mid

Would you mind sorting O=C(O)[C@H]1[C@@H]2Cc3cc(OCc4cc(Oc5ccccc5)ccc4F)ncc3[C@@H]21 into the appropriate category?
mid
